Below, each entry is listed with its recorded z-score.
- assay.summary: optical density change of DRC41 E. coli – strain DRC41, OD650, 24 h, E. coli filamentation project, primary screen (AID 1093);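 further: MC1000 strain lacking acrAB efflux and sulA so SOS filamentation is blocked; test concentration not given here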
- setup.conditions: E. coli DRC41 growth, higher = more signal, called active from +8 up or from −8 down
The answer should be a number; do not append a unit.

>>> observed("[N-]=[N+]=NCc1ccccc1C[C@@]1(C(=O)NCCN2CCOCC2)N=C(c2ccc(OCCCO)cc2)O[C@@H]1c1ccccc1CN=[N+]=[N-]")
1.24
>>> observed("O=C1NC(=O)C2C1C=CC(C(O)c1ccc3c(c1)OCO3)N2Nc1ccc(Cl)cc1Cl (centres undefined)")
-1.14
>>> observed("COc1ccc([Si](C)(C)[C@@H]2[C@@H](CC(=O)N(CCO)Cc3ccccc3)O[C@]3(C(=O)N(C)c4c(Br)cc(C)cc43)[C@H]2C)cc1")
-1.37

Could you now look at the following compound, please?
So, "CC(C)C[C@@H]1NC(=O)[C@@H]2C[C@H](C(=O)NCc3ccc(F)cc3)[C@H](c3ccc(O)cc3)N2C1=O" ? Its z-score was 0.549

###

Below, each entry is listed with its recorded z-score.
- assay.summary: JC-1 mitochondrial signal, unstimulated adipocytes – cell-based, JC-1 fluorescence, 3T3-L1 adipocytes, 24 h, 100 nL compound, profiling panel (AID 1168); further: test concentration not given here
- setup.conditions: JC-1 mitochondrial fluorescence, higher = more signal, called active from +8 up or from −8 down
The answer should be a number; do not append a unit.

>>> observed("COCCOC(=O)N1C(=O)[C@@]2(c3cc(C#CCCO)ccc31)[C@H](C(=O)N1CCc3cc(OC)c(OC)cc3C1)[C@H]1C(=O)O[C@H](c3ccccc3)[C@H](c3ccccc3)N1[C@@H]2c1ccc(OCCO)cc1")
1.21
>>> observed("C=CC[C@]1(C(=O)N2CCOCC2)N=C(c2ccc(OCCCO)cc2)O[C@H]1c1ccccc1CN=[N+]=[N-]")
0.114

So, "C[N+](C)(C)CCCC[C@@H]1NC(=O)[C@@H]2C[C@H](C(=O)NCCCCCNC(=O)CS)[C@H](c3cccc(OCCO)c3)N2C1=O" ? Its z-score was -0.364

###

Below, each entry is listed with its recorded z-score.
- target: Homeobox protein Hox-A13 (Mus musculus)
- assay.summary: disruptors of Hoxa13 oligonucleotide interaction – biochemical, fluorescence polarization, labeled oligonucleotide, primary screen (AID 1185)
- setup.conditions: Hoxa13:DNA binding, 15 min, higher = more signal, called active from +8 up or from −8 down
The answer should be a number; do not append a unit.

The examples below pair each entry with its known result.
>>> observed("[N-]=[N+]=Nc1ccccc1[C@H]1OC(c2ccc(OCCCO)cc2)=N[C@@]1(Cc1ccccc1)C(=O)NCc1ccccc1")
-2.71
>>> observed("CN1C(=O)C2C=CC(C(O)c3ccc(F)cc3)N(N3CCCCC3)C2C1=O (stereo not drawn)")
-7.46
>>> observed("CCOC(=O)C1=CC[C@@H](c2cccc(Br)c2)N(S(=O)(=O)c2ccc(C)cc2)[C@H]1c1ccc([N+](=O)[O-])cc1")
4.18
>>> observed("Cc1ccc(-c2cccc(=O)o2)cc1")
-1.28
>>> observed("Cc1cc(C)c(C(O)C2C=CC3C(=O)N(c4ccccc4)C(=O)C3N2Nc2ccc([N+](=O)[O-])cc2)c(C)c1 (stereo not drawn)")
-1.86
>>> observed("O=C(NCc1ccccc1)[C@]1(Cc2ccccc2)N=C(c2ccc(OCCCO)cc2)O[C@@H]1c1ccccc1")
-2.75

Could you now look at the following compound, please?
// z-score (Homeobox protein Hox-A13 (Mus musculus)) for "[N-]=[N+]=NCc1ccccc1[C@H]1OC(c2ccc(OCCCO)cc2)=N[C@@]1(Cc1ccccc1N=[N+]=[N-])C(=O)NCCN1CCOCC1" = -3.06
